- Experiment summary: in vitro
- Run conditions: dog, TOX MDCK CC50
Catalogue of molecules with associated log10 of CC50 at 3 days
Would you kindly interpret these values as log10 of CC50 at 3 days expressed in µM?

Some solved cases for reference:
[
  {
    "Molecule": "Cc1cc(F)c2[nH]cc(-c3ncc(F)c(N[C@@H]4CCC[C@H](NC(=O)c5ccccn5)C4)n3)c2c1 (racemic)",
    "log10 of CC50 at 3 days": 0.68
  },
  {
    "Molecule": "C=CCC(C)(C)[C@@H](CC(=O)O)Nc1nc(-c2c[nH]c3c(F)cc(C)cc23)ncc1F",
    "log10 of CC50 at 3 days": -0.22
  }
]

Query block: Requested read-out: log10 of CC50 at 3 days. Entry: CC(C)(C)[C@H](CC(=O)O)Nc1nc(-c2c[nH]c3c(F)cc(F)cc23)c(C(F)(F)F)cc1F (single isomer, unassigned)
Result block: 0.79

Query block: Next molecule up: O=C(N[C@@H]1CCC[C@H](Nc2nc(-c3c[nH]c4c(F)cc(Cl)cc34)ncc2F)C1)c1ncccn1
Result block: 0.68

----------
Catalogue of compounds with associated melting point

Some solved cases for reference:
[
  {
    "Compound": "Cc1sc(N)nc1C(=O)N[C@@H]1CCC[C@H](Nc2nc(-c3c[nH]c4c(F)cc(F)cc34)ncc2F)C1 [Compound 150]",
    "melting point": "248.4 °C"
  },
  {
    "Compound": "Cn1cnc(C(=O)N[C@@H]2CCC[C@H](Nc3nc(-c4c[nH]c5c(F)cc(F)cc45)ncc3F)C2)n1 [Compound 134]",
    "melting point": "183.2 °C"
  },
  {
    "Compound": "C=CCC(C)(C)C(CC(=O)O)Nc1nc(-c2c[nH]c3c(F)cc(F)cc23)c(C#N)cc1F (stereo not shown) [Compound 241]",
    "melting point": "> 260 °C"
  }
]

Next item in the queue.
Query block: Requested read-out: melting point. Entry: Cc1cnc(C(=O)N[C@@H]2CCC[C@H](Nc3nc(-c4c[nH]c5c(F)cc(F)cc45)ncc3F)C2)n1C [Compound 144]
Result block: 204.9 °C

----------
- Experiment summary: in vitro
- Run conditions: dog, TOX MDCK CC50
Threshold 6 µM: CC50 at 3 days strictly smaller gives fulfilled, otherwise not fulfilled.

Query block: Hi there! Is CC50 at 3 days for Cc1cc(F)c2[nH]cc(-c3ncc(F)c(N[C@H]4CCC[C@@H](NC(=O)c5ncsc5C)C4)n3)c2c1 (racemic) below 6 µM, do you know?
Result block: fulfilled

Query block: Next compound up: Cn1cc(C(=O)N[C@@H]2CCC[C@H](Nc3nc(-c4c[nH]c5c(F)cc(F)cc45)ncc3F)C2)cn1
Result block: not fulfilled

Query block: Next compound up: O=C(N[C@@H]1CCC[C@H](Nc2nc(-c3c[nH]c4c(F)cc(Cl)cc34)ncc2F)C1)c1cc[nH]n1
Result block: fulfilled

Query block: Next compound up: O=C(O)[C@H]1C2CCC(CC2)[C@@H]1Nc1nc(-c2c[nH]c3c(F)cc(Cl)cc23)ncc1F
Result block: fulfilled

Query block: Next compound up: CC(=O)NCc1cc(F)c(N[C@@H]2CCC[C@H](NC(=O)N3CCCC3)C2)nc1-c1c[nH]c2c(F)cc(F)cc12
Result block: not fulfilled

Query block: Next compound up: Cc1c[nH]c(C(=O)N[C@@H]2CCC[C@H](Nc3nc(-c4c[nH]c5c(F)cc(F)cc45)ncc3F)C2)n1
Result block: not fulfilled

Query block: Next compound up: Cn1cccc1C(=O)N[C@@H]1CCC[C@H](Nc2nc(-c3c[nH]c4c(F)cc(F)cc34)ncc2F)C1 (racemic)
Result block: not fulfilled

Query block: Next compound up: O=C(N[C@@H]1CCC[C@H](Nc2nc(-c3c[nH]c4c(F)cc(F)cc34)ncc2F)C1)c1c[nH]cn1
Result block: not fulfilled

Query block: Next compound up: CCn1nccc1C(=O)N[C@@H]1CCC[C@H](Nc2nc(-c3c[nH]c4c(F)cc(F)cc34)ncc2F)C1
Result block: not fulfilled

Query block: Next compound up: Cc1cc(C(=O)N[C@@H]2CCC[C@@H](Nc3nc(-c4c[nH]c5c(F)cc(F)cc45)c(C#N)cc3F)C2)no1
Result block: not fulfilled

Query block: Next compound up: O=C(N[C@@H]1CCC[C@H](Nc2nc(-c3c[nH]c4c(F)cc(F)cc34)ncc2F)C1)c1cc(Cl)ccn1
Result block: not fulfilled

Query block: Next compound up: Cc1cc(C(=O)N[C@@H]2CCC[C@H](Nc3nc(-c4c[nH]c5c(F)cc(Cl)cc45)ncc3F)C2)on1 (racemic)
Result block: fulfilled

Reference source for all entries: patent US10597390B2
